- Protocol Description: Unbound fraction in rhesus monkey at 0.5 mg/kg, iv or 2 mg/kg, po
- Type: ADME, organism-based, Macaca mulatta
- Condition Context: in vivo
Experimental Readout: fraction unbound

O=C(c1ccc(C[C@@H]2CC[C@H]([C@H](O)c3ccccc3)N2)cc1)N1CCN(Cc2ccccn2)CC1 | 0.42
O=C(c1ccc(C[C@@H]2CC[C@H]([C@H](O)c3ccccc3)N2)cc1)N1CCN(Cc2nnn(CC(F)(F)F)n2)CC1 | 0.44

---

- Protocol Description: Volume of distribution in dog at 0.5 mg/kg, iv or 2 mg/kg, po
- Type: ADME, organism-based, Canis lupus familiaris
- Condition Context: in vivo
Experimental Readout: Vd (L/kg)

O=C(c1ccc(C[C@@H]2CC[C@H]([C@H](O)c3ccccc3)N2)cc1)N1CCN(Cc2nnn(CC(F)(F)F)n2)CC1 | 11

a: O=C(c1ccc(C[C@@H]2CC[C@H]([C@H](O)c3ccccc3)N2)cc1)N1CCN(Cc2ccccn2)CC1
b: O=C(c1ccc(C[C@@H]2CC[C@H]([C@H](O)c3ccccc3)N2)cc1)N1CCN(Cc2nnn(CC(F)F)n2)CC1
Which is greater in Vd, the first item a or the second item b ? Provide the label of your selected option as the answer.
b

---

- Protocol Description: Volume of distribution in rat at 1 mg/kg, iv or 2 mg/kg, po
- Format: ADME, organism-based
- Condition Context: in vivo
Experimental Readout: Vd (L/kg)

O=C(c1ccc(C[C@@H]2CC[C@H]([C@H](O)c3ccccc3)N2)cc1)N1CCN(Cc2ccccn2)CC1 | 19

a: O=C(c1ccc(C[C@@H]2CC[C@H]([C@H](O)c3ccccc3)N2)cc1)N1CCN(Cc2nnn(CC(F)F)n2)CC1
b: O=C(c1ccc(C[C@@H]2CC[C@H]([C@H](O)c3ccccc3)N2)cc1)N1CCN(Cc2ncn(CC(F)(F)F)n2)CC1
c: O=C(c1ccc(C[C@@H]2CC[C@H]([C@H](O)c3ccccc3)N2)cc1)N1CCN(Cc2ncn(CC(F)F)n2)CC1
Order the items by recorded Vd; the first position goes to the largest value. Answer by writing out the labels in the requested order.
c, b, a
(c: 57 L/kg, b: 38 L/kg, a: 21 L/kg)

---

- Tested on: Rattus norvegicus
- Protocol Description: Total dose normalized AUC in rat 2 mg/kg, po
- Type: ADME, organism-based
- Condition Context: in vivo
Experimental Readout: AUC/dose (µM·h/mg/kg)

These recorded examples may help you get a feel for the data.
O=C(c1ccc(C[C@@H]2CC[C@H]([C@H](O)c3ccccc3)N2)cc1)N1CCN(Cc2ncn(CC(F)F)n2)CC1 | 0.29
O=C(c1ccc(C[C@@H]2CC[C@H]([C@H](O)c3ccccc3)N2)cc1)N1CCN(Cc2nnn(CC(F)(F)F)n2)CC1 | 0.14
CCc1nnc([C@H]2[C@@H]3CN(C(=O)c4ccc(C[C@@H]5CC[C@H]([C@H](O)c6ccccc6)N5)cc4)C[C@@H]32)o1 | 0.21

I: O=C(c1ccc(C[C@@H]2CC[C@H]([C@H](O)c3ccccc3)N2)cc1)N1CCN(Cc2ccccn2)CC1
II: O=C(c1ccc(C[C@@H]2CC[C@H]([C@H](O)c3ccccc3)N2)cc1)N1CCN(Cc2nnn(CC(F)F)n2)CC1
Which is greater in AUC/dose, the first item I or the second item II ? Provide the label of your selected option as the answer.
I
(I: 0.35 µM·h/mg/kg, II: 0.05 µM·h/mg/kg)

---

- Protocol Description: Plasma clearance in dog at 0.5 mg/kg, iv or 2 mg/kg, po
- Type: ADME, organism-based, Canis lupus familiaris
Experimental Readout: clearance (mL/min/kg)

O=C(c1ccc(C[C@@H]2CC[C@H]([C@H](O)c3ccccc3)N2)cc1)N1CCN(Cc2nnn(CC(F)F)n2)CC1 | 22

P: O=C(c1ccc(C[C@@H]2CC[C@H]([C@H](O)c3ccccc3)N2)cc1)N1CCN(Cc2nnn(CC(F)(F)F)n2)CC1
Q: O=C(c1ccc(C[C@@H]2CC[C@H]([C@H](O)c3ccccc3)N2)cc1)N1CCN(Cc2ccccn2)CC1
Among P and Q , whose measured clearance is the smaller figure? Provide the label of your selected option as the answer.
Q
(Q: 7.9 mL/min/kg, P: 22 mL/min/kg)

---

- Tgt: Sodium-dependent serotonin transporter (Homo sapiens, UniProt P31645)
- Sequence (P31645 whole entry): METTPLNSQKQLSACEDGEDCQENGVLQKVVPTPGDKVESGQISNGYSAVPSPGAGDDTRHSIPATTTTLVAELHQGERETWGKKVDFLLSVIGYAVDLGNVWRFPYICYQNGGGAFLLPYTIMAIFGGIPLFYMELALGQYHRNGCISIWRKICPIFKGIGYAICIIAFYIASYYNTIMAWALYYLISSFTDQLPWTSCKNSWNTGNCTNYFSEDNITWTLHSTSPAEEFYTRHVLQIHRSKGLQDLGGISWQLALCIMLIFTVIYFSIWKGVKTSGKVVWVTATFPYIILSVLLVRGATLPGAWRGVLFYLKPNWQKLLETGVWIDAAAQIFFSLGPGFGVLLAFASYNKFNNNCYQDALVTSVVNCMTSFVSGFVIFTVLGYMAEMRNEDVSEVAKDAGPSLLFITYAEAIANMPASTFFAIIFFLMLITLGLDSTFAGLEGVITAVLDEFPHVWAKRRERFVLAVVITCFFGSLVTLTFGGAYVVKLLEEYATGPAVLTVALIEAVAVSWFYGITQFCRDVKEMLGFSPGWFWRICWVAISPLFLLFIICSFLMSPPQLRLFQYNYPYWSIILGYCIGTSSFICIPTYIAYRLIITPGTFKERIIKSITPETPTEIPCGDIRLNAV
Experimental Readout: IC50

These recorded examples may help you get a feel for the data.
O=C(c1ccc(C[C@@H]2CC[C@H]([C@H](O)c3ccccc3)N2)cc1)N1CCN(Cc2ccccn2)CC1 | > 10 µM
O=C(c1ccc(C[C@@H]2CC[C@H]([C@H](O)c3ccccc3)N2)cc1)N1CCN(Cc2nnn(CC(F)F)n2)CC1 | > 10 µM

Switching to the query record.
Hi! What's the reported IC50 for O=C(c1ccc(C[C@@H]2CC[C@H]([C@H](O)c3ccccc3)N2)cc1)N1CCN(Cc2nnn(CC(F)(F)F)n2)CC1 on Sodium-dependent serotonin transporter (Homo sapiens, UniProt P31645)?
> 10 µM

---

- System: Canis familiaris
- Protocol Description: Total dose normalized AUC in dog at 2 mg/kg, po
- Format: ADME, organism-based, Canis lupus familiaris
- Condition Context: in vivo
Experimental Readout: AUC/dose (µM·h/mg/kg)

O=C(c1ccc(C[C@@H]2CC[C@H]([C@H](O)c3ccccc3)N2)cc1)N1CCN(Cc2nnn(CC(F)F)n2)CC1 | 0.29
O=C(c1ccc(C[C@@H]2CC[C@H]([C@H](O)c3ccccc3)N2)cc1)N1CCN(Cc2ccccn2)CC1 | 1.3

P: O=C(c1ccc(C[C@@H]2CC[C@H]([C@H](O)c3ccccc3)N2)cc1)N1CCN(Cc2nnn(CC(F)(F)F)n2)CC1
Q: CCc1nnc([C@H]2[C@@H]3CN(C(=O)c4ccc(C[C@@H]5CC[C@H]([C@H](O)c6ccccc6)N5)cc4)C[C@@H]32)o1
Which is greater in AUC/dose, the first item P or the second item Q ? Provide the label of your selected option as the answer.
P
(P: 1.9 µM·h/mg/kg, Q: 0.46 µM·h/mg/kg)

---

- Protocol Description: Half life in rhesus monkey at 0.5 mg/kg, iv or 2 mg/kg, po
- Assay type: ADME, organism-based, Macaca mulatta
- Condition Context: in vivo
Experimental Readout: half-life (h)

O=C(c1ccc(C[C@@H]2CC[C@H]([C@H](O)c3ccccc3)N2)cc1)N1CCN(Cc2ccccn2)CC1 | 5.8
O=C(c1ccc(C[C@@H]2CC[C@H]([C@H](O)c3ccccc3)N2)cc1)N1CCN(Cc2nnn(CC(F)(F)F)n2)CC1 | 6.5

---

- Protocol Description: Oral bioavailability in rat 2 mg/kg
- Assay type: ADME, organism-based
- Condition Context: in vivo
Experimental Readout: bioavailability (%)

P: O=C(c1ccc(C[C@@H]2CC[C@H]([C@H](O)c3ccccc3)N2)cc1)N1CCN(Cc2nnn(CC(F)(F)F)n2)CC1
Q: O=C(c1ccc(C[C@@H]2CC[C@H]([C@H](O)c3ccccc3)N2)cc1)N1CCN(Cc2nnn(CC(F)F)n2)CC1
R: O=C(c1ccc(C[C@@H]2CC[C@H]([C@H](O)c3ccccc3)N2)cc1)N1CCN(Cc2ccccn2)CC1
Rank order required: bioavailability, descending. Answer by writing out the labels in the requested order.
R, P, Q

---

- Protocol Description: Induction of phospholipidosis in human HepG2 cells
- Assay type: cell-based
- Condition Context: read-out: A50
Experimental Readout: AC50 (µM)
Give the value in µM but do not write µM after it.

These recorded examples may help you get a feel for the data.
O=C(c1ccc(C[C@@H]2CC[C@H]([C@H](O)c3ccccc3)N2)cc1)N1CCN(Cc2nnn(CC(F)(F)F)n2)CC1 | 72
O=C(c1ccc(C[C@@H]2CC[C@H]([C@H](O)c3ccccc3)N2)cc1)N1CCN(Cc2ccccn2)CC1 | 54
Cc1nnc(-c2cccc(CN3CCN(C(=O)c4ccc(C[C@@H]5CC[C@H]([C@H](O)c6ccccc6)N5)cc4)CC3)n2)o1 | 68

For the molecule O=C(c1ccc(C[C@@H]2CC[C@H]([C@H](O)c3ccccc3)N2)cc1)N1CCN(Cc2nnn(CC3CC3)n2)CC1 , what AC50 is on record?
70

---

- System: Rattus norvegicus
- Protocol Description: In vivo agonist activity at beta3-AR in po dosed rat
- Type: functional, organism-based
Experimental Readout: EC50 (µM)
Give the value in µM but do not write µM after it.

For the molecule O=C(c1ccc(C[C@@H]2CC[C@H]([C@H](O)c3ccccc3)N2)cc1)N1CCN(Cc2nnn(CC(F)(F)F)n2)CC1 , what EC50 is on record?
4.5

---

- Protocol Description: Half life in rat at 1 mg/kg, iv or 2 mg/kg, po
- Type: ADME, organism-based
- Condition Context: in vivo
Experimental Readout: half-life (h)

These recorded examples may help you get a feel for the data.
O=C(c1ccc(C[C@@H]2CC[C@H]([C@H](O)c3ccccc3)N2)cc1)N1CCN(Cc2ccccn2)CC1 | 2.6
O=C(c1ccc(C[C@@H]2CC[C@H]([C@H](O)c3ccccc3)N2)cc1)N1CCN(Cc2ncn(CC(F)(F)F)n2)CC1 | 5.4
O=C(c1ccc(C[C@@H]2CC[C@H]([C@H](O)c3ccccc3)N2)cc1)N1CCN(Cc2nnn(CC(F)(F)F)n2)CC1 | 2.8

A: O=C(c1ccc(C[C@@H]2CC[C@H]([C@H](O)c3ccccc3)N2)cc1)N1CCN(Cc2ncn(CC(F)F)n2)CC1
B: O=C(c1ccc(C[C@@H]2CC[C@H]([C@H](O)c3ccccc3)N2)cc1)N1CCN(Cc2nnn(CC(F)F)n2)CC1
Which is greater in half-life, the first item A or the second item B ? Provide the label of your selected option as the answer.
A
(A: 7.3 h, B: 2.6 h)
